Origin of values: patent US20170000133A1

# reported melting point; entries follow
observedProperty: melting point

compound	endpointResult
O=C(OCc1ccsc1)c1cc2c(cc1F)COB2O	128 to 130 °C
O=C(OCCO)c1ccc2c(c1)B(O)OC2	122 to 124 °C
O=C(OCc1ccsc1)c1ccc2c(c1)B(O)OC2	130 to 132 °C
O=C(NCc1ccccc1F)c1cc2c(cc1F)COB2O	175 to 177 °C
O=C(NCc1ccc(Oc2ccccc2)cc1)c1cc2c(cc1F)COB2O	178 to 180 °C

* * *

A collection of compounds and their measured melting point

compound	melting point
CC(=O)COC(=O)c1cc2c(cc1Cl)COB2O	134 to 136 °C
O=C(NCc1ccco1)c1cc2c(cc1F)COB2O	158 to 160 °C
O=C(OCC1CCC1)c1cc2c(cc1Cl)COB2O	115 to 117 °C
COC(=O)C#CCOC(=O)c1cc2c(cc1F)COB2O	112 to 114 °C
CON(C)C(=O)c1cc2c(cc1F)COB2O	144 to 146 °C
O=C(OCCOc1ccc(Cl)cc1)c1ccc2c(c1)B(O)OC2	122 to 124 °C
CC(C)c1ccc(NC(=O)c2cc3c(cc2F)COB3O)cc1	184 to 186 °C
CC(=O)C(C)OC(=O)c1cc2c(cc1Cl)COB2O (stereo not shown)	102 to 104 °C
COC(COC(=O)c1cc2c(cc1Cl)COB2O)OC	122 to 124 °C
COC(=O)COC(=O)c1cc2c(cc1F)COB2O	112 to 114 °C
